Could you please report measured area under the viability dose-response curve for the items listed next?
Tested on: 13F2 (fetal-II hepatoblastoma organoid with high liver markers)
Test: area under the viability dose-response curve (AUC) (AUC (arbitrary units, max 500 = no viability loss)); higher = less sensitive (higher viability)
Details: exposure time: 120 h; concentration range: 0.1 nM - 10 µM, 6 doses
Write the number on its own, no unit after it.

Fill blank: measured area under the viability dose-response curve of the molecule COc1cc(C(=O)O)ccc1NC(=O)[C@@H]1N[C@@H](CC(C)(C)C)[C@](C#N)(c2ccc(Cl)cc2F)[C@H]1c1cccc(Cl)c1F [Idasanutlin] is ____. 282

Could you tell me which area under the viability dose-response curve is on file for Cc1ccc2c(Nc3cccc(Cl)c3F)nccc2c1NC(=O)c1csc2c(N)ncnc12 [Belvarafenib] ? 407

Sample C[C@@H]1CN(C(=O)c2ccc(NC(=O)c3cc(O[C@H](C)c4c(Cl)ccc(F)c4Cl)c(N)nn3)cc2)C[C@H](C)N1 [Ensartinib] — what was its area under the viability dose-response curve? 410

Given the molecule CC(=O)c1c(C)c2cnc(Nc3ccc(N4CCNCC4)cn3)nc2n(C2CCCC2)c1=O [Palbociclib] , what is its reported area under the viability dose-response curve? 337

* * *

Test system: 13F2
Assay: area under the viability dose-response curve (AUC) (AUC (arbitrary units, max 500 = no viability loss)); higher = less sensitive (higher viability)
Conditions: exposure time: 120 h; concentration range: 0.1 nM - 10 µM, 6 doses
EXPERIMENTAL READOUT: area under the viability dose-response curve
I only need the number, thanks.

Which area under the viability dose-response curve value belongs to COCCOc1cnc2ccn([C@H](C)c3nnc4c(F)cc(-c5cnn(C)c5)cn34)c(=O)c2c1 [AMG 337] ? 483

Please look up its area under the viability dose-response curve: CC(C)N(C[C@H]1O[C@@H](n2cnc3c(N)ncnc32)[C@H](O)[C@@H]1O)[C@H]1C[C@@H](CCc2nc3cc(C(C)(C)C)ccc3[nH]2)C1 [Pinometostat] 486

I have this compound here, CO[C@@H]1[C@H](N(C)C(=O)c2ccccc2)C[C@H]2O[C@]1(C)n1c3ccccc3c3c4c(c5c6ccccc6n2c5c31)C(=O)NC4 [Midostaurin] , and I need its recorded area under the viability dose-response curve. 335

* * *

System: 3E (embryonal-type hepatoblastoma organoid)
Assay: area under the viability dose-response curve (AUC) (AUC (arbitrary units, max 500 = no viability loss)); higher = less sensitive (higher viability)
Details: exposure time: 120 h; concentration range: 0.1 nM - 10 µM, 6 doses
Mark each entry Condition met if its area under the viability dose-response curve sits below 300, and Condition not met for all others.

Quick check: area under the viability dose-response curve of CCc1c2c(nc3ccc(O)cc13)-c1cc3c(c(=O)n1C2)COC(=O)[C@]3(O)CC under 300? Condition met

hey, is area under the viability dose-response curve for CC(C)(O)c1cc(Nc2cc(Oc3cn(C4CC4)nc3C3CCOCC3)ccn2)ccn1 lower than 300 or not? Condition not met

Lab log: compare recorded area under the viability dose-response curve with 300; is it strictly lower for Cn1cc(-n2cnc3c(NCc4nc5cc(Cl)c(Cl)cc5[nH]4)nc(N4CCOCC4)nc32)cn1 ? Condition met

Lab log: compare recorded area under the viability dose-response curve with 300; is it strictly lower for CO[C@H]1/C=C/C[C@H](C)[C@@H](C)S(=O)(=O)NC(=O)c2ccc3c(c2)N(C[C@@H]2CC[C@H]21)C[C@@]1(CCCc2cc(Cl)ccc21)CO3 ? Condition not met

Dear colleague, could you confirm whether area under the viability dose-response curve of CNC(=O)CN1CCC(Oc2cc3c(Nc4cccc(Cl)c4F)ncnc3cc2OC)CC1 falls below 300? Thanks. Condition not met

Is 300 strictly greater than the compound's reported area under the viability dose-response curve? compound: CC(C)C[C@H](NC(=O)CNC(=O)c1cc(Cl)ccc1Cl)B(O)O Condition met

Hello, I'm reviewing records and need to know if area under the viability dose-response curve of O=C(O)C1(C(=O)O)CCC1.[NH2-].[NH2-].[Pt+2] is below 300. Could you check? Condition not met

Hello, is area under the viability dose-response curve of the following compound strictly smaller than 300? CC(=O)O[C@H]1C(=O)[C@@]2(C)[C@H]([C@H](OC(=O)c3ccccc3)[C@]3(O)C[C@H](OC(=O)[C@H](O)[C@@H](NC(=O)c4ccccc4)c4ccccc4)C(C)=C1C3(C)C)[C@]1(OC(C)=O)CO[C@@H]1C[C@@H]2O Condition met

Determine whether this compound shows area under the viability dose-response curve lower than 300 (ties excluded): CCOc1cc2ncc(C#N)c(Nc3ccc(OCc4ccccn4)c(Cl)c3)c2cc1NC(=O)/C=C/CN(C)C Condition not met

Would you kindly verify if area under the viability dose-response curve of CN(C)C/C=C/C(=O)Nc1cc2c(Nc3ccc(F)c(Cl)c3)ncnc2cc1O[C@H]1CCOC1 is strictly less than 300? Condition not met

Threshold test, area under the viability dose-response curve < 300: C#Cc1cccc(Nc2ncnc3cc(OCCOC)c(OCCOC)cc23)c1 Condition not met

# check: area under the viability dose-response curve < 300 for Cc1c2c(nn1C)CSCc1cc(n(C)n1)CSc1cc(c3ccccc3c1)OCCCc1c(C(=O)O)n(C)c3c-2c(Cl)ccc13 Condition not met

Report whether reported area under the viability dose-response curve is lower than 300 (strictly) for N#CC[C@H](C1CCCC1)n1cc(-c2ncnc3[nH]ccc23)cn1 Condition not met
